Data origin: PubChem BioAssay (NCI)

protocol: NCI Yeast Anticancer Drug Screen. Data for the bub3 strain (AID 167)
conditionDescription: S. cerevisiae bub3 mutant strain, at 50.0 µM, active compounds read high
The panel holds about 79,000 compounds, 15% with a hit somewhere; the sample as a whole holds those more often. Active and inactive are the calls of the source. Cut-off read from the data, not from the text of the source: active = growth inhibition above about 70%; inactive = the rest.
So I've got a bunch of compounds here, and I need their growth inhibition values.

Tell me the measured growth inhibition of Cn1c(N)c(N=Cc2ccc(Cl)cc2)c(=O)n(C)c1=O , please.
-7.75% (inactive)

Tell me the measured growth inhibition of CO/[N+]([O-])=C\C(=O)N/C=C/C(=O)O , please.
23.6% (inactive)

Tell me the measured growth inhibition of CC(=O)Nc1ccc(/C=N/NC(=O)/C=C/c2ccccc2)cc1 , please.
-1% (inactive)

Tell me the measured growth inhibition of O=C(NC(c1ccccc1)C(O)C(=O)OCc1ccc2c(c1)C(=O)c1ccccc1C2=O)c1ccccc1 (stereo not given) , please.
-8.9% (inactive)

Tell me the measured growth inhibition of CCOC(=O)CCC(NC(=O)c1ccc(Nc2cnc3cc(C(F)(F)F)ccc3n2)cc1)C(=O)OCC (stereo not given) , please.
3.4% (inactive)

Tell me the measured growth inhibition of O=c1[nH]nc(Cc2ccccc2)n1/N=C/c1cccnc1 , please.
30.2% (inactive)

Tell me the measured growth inhibition of O=C(O)c1ccc(F)cc1F , please.
-3.75% (inactive)

Tell me the measured growth inhibition of O=C(c1ccccc1)c1ccc2c(c1)-c1ccccc1-2 , please.
12.8% (inactive)

Tell me the measured growth inhibition of O=S(=O)(Nc1cccc(C(F)(F)F)c1)c1ccc(F)cc1 , please.
-3.5% (inactive)

Tell me the measured growth inhibition of COc1ccc(/C=N/NC(=O)NNC(=O)c2cc([N+](=O)[O-])cc([N+](=O)[O-])c2)cc1OC , please.
3.6% (inactive)

Tell me the measured growth inhibition of Cc1ccccc1/C=N\N=C\c1ccco1 , please.
18.1% (inactive)

Tell me the measured growth inhibition of CCCC[N+](CCCC)(CCCC)CC(=O)[O-] , please.
-8.3% (inactive)

Tell me the measured growth inhibition of C(=N\N=C\c1ccccn1)/c1ccccn1 , please.
-3.7% (inactive)

Tell me the measured growth inhibition of CCOc1cc2c(cc1Cc1ccc3c(c1)OCO3)OCO2 , please.
4.35% (inactive)

Tell me the measured growth inhibition of CCCCOc1ccc(C(=O)C(C(c2ccccc2)N2CCOCC2)N2CCOCC2)cc1 (stereo not given) , please.
-12.2% (inactive)

Tell me the measured growth inhibition of O=C1/C(=C/c2cccc3ccccc23)Cc2ccccc21 , please.
18.1% (inactive)

Tell me the measured growth inhibition of CCc1cc2c(ccc3ccccc32)c2c1CCC2 , please.
5.3% (inactive)

Tell me the measured growth inhibition of C=C(c1ccc(OC)cc1)c1cc(C(C)(C)C)c(O)c(C(C)(C)C)c1 , please.
-4.65% (inactive)

Tell me the measured growth inhibition of Cc1noc(-c2ccccc2)c1N=Nc1ccccc1 , please.
45.1% (inactive)

Tell me the measured growth inhibition of Nc1ncc2ncn(CCO)c2n1 , please.
-6.85% (inactive)

Tell me the measured growth inhibition of O=C1CCC2CCC1C2 (stereo not given) , please.
-36.7% (inactive)

Tell me the measured growth inhibition of CN(C)Cc1nsc(N(C)C)n1 , please.
-19.1% (inactive)

Tell me the measured growth inhibition of CCOC(OCC)c1ccccc1OC , please.
3.6% (inactive)

Tell me the measured growth inhibition of CC1=C(O)c2cc3c(cc2C(=O)C1=O)OCO3 , please.
-18.4% (inactive)

Tell me the measured growth inhibition of CC1CC2=Cc3c(O)c(O)cc(O)c3C(=O)C2=CO1 (stereo not given) , please.
-5.7% (inactive)
